- TARGET_DESC: COX-1 (Mus musculus)
- Construct: there is no pre-treatment of aspirin and LPS in the adhesion of macrophage; endogenous in cells; host or cells: peritoneal macrophages of C57BL/6 mouse, without aspirin and LPS pre-treatment
- Sequence (P22437 27-602): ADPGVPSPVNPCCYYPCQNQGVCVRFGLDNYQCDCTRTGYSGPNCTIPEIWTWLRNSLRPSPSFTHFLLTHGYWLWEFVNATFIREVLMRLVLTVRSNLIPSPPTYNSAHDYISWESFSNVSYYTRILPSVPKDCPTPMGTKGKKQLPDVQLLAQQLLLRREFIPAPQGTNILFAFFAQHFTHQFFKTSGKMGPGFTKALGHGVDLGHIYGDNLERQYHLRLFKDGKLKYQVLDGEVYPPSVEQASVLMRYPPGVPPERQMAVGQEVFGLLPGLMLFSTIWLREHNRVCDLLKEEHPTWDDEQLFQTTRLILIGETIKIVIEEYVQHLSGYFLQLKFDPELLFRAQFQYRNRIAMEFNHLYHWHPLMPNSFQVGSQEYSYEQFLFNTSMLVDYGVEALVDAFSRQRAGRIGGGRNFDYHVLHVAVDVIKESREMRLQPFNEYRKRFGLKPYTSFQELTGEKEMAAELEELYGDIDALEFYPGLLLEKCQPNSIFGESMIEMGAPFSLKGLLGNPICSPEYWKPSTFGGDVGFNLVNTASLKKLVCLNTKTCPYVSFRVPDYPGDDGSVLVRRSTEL
- ASSAY_OVERVIEW: Evaluation of COX-1's inhibition efficacy (macrophages without aspirin and LPS pre-treatment)
- Type: cell-based, C57BL/6 mouse
- MEASUREMENT_CONTEXT: 1 μg/ml
MEASURE: inhibition at 1 µg/mL (%)

# count of solved cases: 4
- COMPOUND: "NS(=O)(=O)c1ccc(-c2oc3ccc(F)cc3c(=O)c2-c2ccc(F)cc2)cc1 [Example 48]"
  UNIT_TAG: "%"
  inhibition at 1 µg/mL: 36
- COMPOUND: "COc1ccc(-c2c(-c3ccc(S(N)(=O)=O)cc3)oc3ccccc3c2=O)cc1 [Example 55]"
  UNIT_TAG: "%"
  inhibition at 1 µg/mL: 66
- COMPOUND: "NS(=O)(=O)c1ccc(-c2oc3ccc(F)cc3c(=S)c2-c2ccc(F)cc2)cc1 [Example 68]"
  UNIT_TAG: "%"
  inhibition at 1 µg/mL: 58
- COMPOUND: "NS(=O)(=O)c1ccc(-c2oc3cc(F)ccc3c(=O)c2-c2cccc(F)c2)cc1 [Example 61]"
  UNIT_TAG: "%"
  inhibition at 1 µg/mL: 22

(I) NS(=O)(=O)c1ccc(-c2oc3ccccc3c(=S)c2-c2ccc(F)cc2)cc1 [Example 69]
(II) NS(=O)(=O)c1ccc(-c2oc3c(Cl)ccc(O)c3c(=O)c2-c2ccc(F)cc2)cc1 [Example 66]
### Prompt Of the two listed items, I and II , which carries the larger inhibition at 1 µg/mL figure? Indicate your choice by writing its label.
### Response I

* * *

MEASURE: melting point

# count of solved cases: 5
- CHEM_SMILES: "CC(=O)c1ccc(-c2c(-c3ccc(S(C)(=O)=O)cc3)oc3ccccc3c2=O)cc1"
  MEASURED: "223 to 224 °C"
- CHEM_SMILES: "COc1ccc(-c2c(-c3ccc(S(N)(=O)=O)cc3)oc3ccccc3c2=O)cc1"
  MEASURED: "252 to 254 °C"
- CHEM_SMILES: "CS(=O)(=O)c1ccc(-c2oc3ccccc3c(=O)c2-c2ccc(C(F)(F)F)nc2)cc1"
  MEASURED: "215 to 217 °C"
- CHEM_SMILES: "CS(=O)(=O)c1ccc(-c2oc3ccccc3c(=S)c2-c2ccccc2F)cc1"
  MEASURED: "198 to 200 °C"
- CHEM_SMILES: "NS(=O)(=O)c1ccc(-c2oc3ccccc3c(=O)c2-c2ccccc2F)cc1"
  MEASURED: "215 to 217 °C"

### Prompt Give the reported value of melting point for this record: CS(=O)(=O)c1ccc(-c2oc3ccccc3c(=O)c2-c2ccc(C=O)cc2)cc1
### Response 189 to 190 °C

### Prompt Give the reported value of melting point for this record: CS(=O)(=O)c1ccc(-c2oc3ccccc3c(=O)c2-c2cccc3ccccc23)cc1
### Response 193 to 194 °C

### Prompt Give the reported value of melting point for this record: Cn1ccc(-c2c(-c3ccc(S(C)(=O)=O)cc3)oc3ccccc3c2=O)n1
### Response 202 to 203 °C

* * *

Entries and their measured melting point follow.

# count of solved cases: 5
- CHEM_SMILES: "CS(=O)(=O)c1ccc(-c2oc3ccccc3c(=O)c2-c2ccc(Cl)cc2Cl)cc1"
  melting point: "172 to 175 °C"
- CHEM_SMILES: "NS(=O)(=O)c1ccc(-c2oc3ccc(F)cc3c(=O)c2-c2ccc(F)cc2)cc1"
  melting point: "224 to 226 °C"
- CHEM_SMILES: "NS(=O)(=O)c1ccc(-c2oc3ccccc3c(=O)c2-c2ccc(F)cc2)cc1"
  melting point: "267 to 268 °C"
- CHEM_SMILES: "Cc1ccc(-c2c(-c3ccc(S(N)(=O)=O)cc3)oc3ccc(F)cc3c2=O)cc1"
  melting point: "215 to 217 °C"
- CHEM_SMILES: "CS(=O)(=O)c1ccc(-c2oc3ccccc3c(=S)c2-c2cccc(F)c2)cc1"
  melting point: "212 °C"

### Prompt Give the reported value of melting point for this record: NS(=O)(=O)c1ccc(-c2oc3ccccc3c(=O)c2-c2ccc(Cl)c(Cl)c2)cc1
### Response 215 to 217 °C

### Prompt Give the reported value of melting point for this record: Cc1ccc(-c2c(-c3ccc(S(C)(=O)=O)cc3)oc3ccccc3c2=O)cc1
### Response 225 °C

* * *

- TARGET_DESC: COX-2 (Mus musculus, UniProt Q05769)
- Construct: endogenous in cells; host or cells: peritoneal macrophages of C57BL/6 mouse, aspirin-pretreated, LPS-induced
- Sequence (Q05769 18-604): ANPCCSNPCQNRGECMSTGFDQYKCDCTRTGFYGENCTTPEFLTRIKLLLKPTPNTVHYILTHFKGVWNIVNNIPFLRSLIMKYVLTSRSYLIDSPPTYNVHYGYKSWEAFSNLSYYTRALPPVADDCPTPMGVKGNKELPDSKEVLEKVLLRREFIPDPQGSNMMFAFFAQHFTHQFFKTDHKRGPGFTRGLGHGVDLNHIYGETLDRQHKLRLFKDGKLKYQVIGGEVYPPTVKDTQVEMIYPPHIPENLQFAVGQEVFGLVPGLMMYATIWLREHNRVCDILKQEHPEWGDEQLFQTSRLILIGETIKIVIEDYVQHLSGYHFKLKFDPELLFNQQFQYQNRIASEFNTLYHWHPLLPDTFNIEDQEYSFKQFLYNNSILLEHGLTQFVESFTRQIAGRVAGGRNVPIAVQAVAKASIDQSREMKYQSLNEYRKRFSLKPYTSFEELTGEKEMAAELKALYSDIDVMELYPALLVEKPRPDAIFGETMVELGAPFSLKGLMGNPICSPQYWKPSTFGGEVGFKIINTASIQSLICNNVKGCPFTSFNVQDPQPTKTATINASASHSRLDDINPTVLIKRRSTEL
- ASSAY_OVERVIEW: Evaluation of COX-2's inhibition efficacy (PGE2 radioimmuno assay, LPS-induced, aspirin-pretreated peritoneal macrophages)
- Assay type: cell-based, C57BL/6 mouse
- MEASUREMENT_CONTEXT: 10 μg/ml
- Method: Regarding the compounds in the above Examples and indomethacin, the inhibition efficacy of COX-2 and COX-1 are being measured by the following two methods. […] Evaluation of COX-2's Inhibition Efficacy (J. Pharmacol. Exp. […] The amount of PGE2 produced in the supernatant liquid of reaction was determined by the PGE2 radioimmuno assay.
MEASURE: inhibition at 10 µg/mL (%)

# count of solved cases: 3
- CHEM_SMILES: "CS(=O)(=O)c1ccc(-c2oc3ccccc3c(=O)c2-c2cccc(Cl)c2)cc1"
  inhibition at 10 µg/mL (%): 95
- CHEM_SMILES: "CS(=O)(=O)c1ccc(-c2oc3ccccc3c(=O)c2-c2ccccc2)cc1"
  inhibition at 10 µg/mL (%): 81
- CHEM_SMILES: "CS(=O)(=O)c1ccc(-c2oc3ccccc3c(=O)c2-c2cccc(Cl)c2Cl)cc1"
  inhibition at 10 µg/mL (%): 71

(I) COc1ccc(Cl)c2oc(-c3ccc(S(N)(=O)=O)cc3)c(-c3ccc(F)cc3)c(=O)c12
(II) Cn1ccc(-c2c(-c3ccc(S(C)(=O)=O)cc3)oc3ccccc3c2=O)n1
### Prompt # compare inhibition at 10 µg/mL for I vs II ; return the one with the smaller value Indicate your choice by writing its label.
### Response II
(II: 13%, I: 93%)

* * *

Entries and their measured melting point follow.

- CHEM_SMILES: "Cc1ccccc1-c1c(-c2ccc(S(C)(=O)=O)cc2)oc2ccccc2c1=S"
  melting point: "234 °C"
- CHEM_SMILES: "COc1ccc(-c2c(-c3ccc(S(C)(=O)=O)cc3)oc3ccccc3c2=O)cn1"
  melting point: "226 to 227 °C"

### Prompt Give the reported value of melting point for this record: CS(=O)(=O)c1ccc(-c2oc3ccccc3c(=O)c2-c2cccnc2)cc1
### Response 220 to 221 °C

* * *

- TARGET_DESC: COX-2 (Mus musculus, UniProt Q05769)
- Construct: endogenous in cells; host or cells: peritoneal macrophages of C57BL/6 mouse, aspirin-pretreated, LPS-induced
- ASSAY_OVERVIEW: Evaluation of COX-2's inhibition efficacy (PGE2 radioimmuno assay, LPS-induced, aspirin-pretreated peritoneal macrophages)
- Format: cell-based, C57BL/6 mouse
- MEASUREMENT_CONTEXT: 1 μg/ml
MEASURE: inhibition at 1 µg/mL (%)

- CHEM_SMILES: "CS(=O)(=O)c1ccc(-c2oc3ccccc3c(=O)c2-c2ccc(F)cc2)cc1"
  MEASURED: 100
- CHEM_SMILES: "CS(=O)(=O)c1ccc(-c2oc3ccccc3c(=S)c2-c2cccc(F)c2)cc1"
  MEASURED: 67
- CHEM_SMILES: "NS(=O)(=O)c1ccc(-c2oc3ccccc3c(=O)c2-c2ccc(Cl)c(Cl)c2)cc1"
  MEASURED: 96
- CHEM_SMILES: "CS(=O)(=O)c1ccc(-c2oc3ccccc3c(=O)c2-c2cccnc2)cc1"
  MEASURED: 83
- CHEM_SMILES: "CS(=O)(=O)c1ccc(-c2oc3ccc(F)cc3c(=O)c2-c2cccnc2)cc1"
  MEASURED: 66
- CHEM_SMILES: "CS(=O)(=O)c1ccc(-c2oc3ccccc3c(=O)c2-c2cccc(Cl)c2)cc1"
  MEASURED: 86
- CHEM_SMILES: "CS(=O)(=O)c1ccc(-c2oc3ccccc3c(=O)c2-c2ccccc2)cc1"
  MEASURED: 68
- CHEM_SMILES: "NS(=O)(=O)c1ccc(-c2oc3ccc(F)cc3c(=O)c2-c2ccc(Cl)cc2)cc1"
  MEASURED: 80
- CHEM_SMILES: "CS(=O)(=O)c1ccc(-c2oc3ccccc3c(=O)c2-c2ccc(Cl)c(Cl)c2)cc1"
  MEASURED: 89
- CHEM_SMILES: "NS(=O)(=O)c1ccc(-c2oc3ccc(F)cc3c(=O)c2-c2cccc(F)c2)cc1"
  MEASURED: 83
- CHEM_SMILES: "CS(=O)(=O)c1ccc(-c2oc3ccccc3c(=S)c2-c2cccc(Cl)c2Cl)cc1"
  MEASURED: 77
- CHEM_SMILES: "NS(=O)(=O)c1ccc(-c2oc3cc(F)ccc3c(=O)c2-c2ccc(Cl)c(Cl)c2)cc1"
  MEASURED: 100
- CHEM_SMILES: "NS(=O)(=O)c1ccc(-c2oc3ccccc3c(=O)c2-c2ccccc2F)cc1"
  MEASURED: 63
- CHEM_SMILES: "CS(=O)(=O)c1ccc(-c2oc3ccccc3c(=S)c2-c2ccc(F)cc2)cc1"
  MEASURED: 80
- CHEM_SMILES: "CS(=O)(=O)c1ccc(-c2oc3ccccc3c(=O)c2-c2ccc(Cl)cc2Cl)cc1"
  MEASURED: 90
- CHEM_SMILES: "NS(=O)(=O)c1ccc(-c2oc3cc(F)ccc3c(=O)c2-c2ccccc2F)cc1"
  MEASURED: 100
- CHEM_SMILES: "COc1ccc(Cl)c2oc(-c3ccc(S(N)(=O)=O)cc3)c(-c3ccc(F)cc3)c(=O)c12"
  MEASURED: 67
- CHEM_SMILES: "NS(=O)(=O)c1ccc(-c2oc3ccccc3c(=S)c2-c2ccc(F)cc2)cc1"
  MEASURED: 98
- CHEM_SMILES: "NS(=O)(=O)c1ccc(-c2oc3c(Cl)ccc(O)c3c(=O)c2-c2ccc(F)cc2)cc1"
  MEASURED: 83
